- ASSAY SYSTEM: UniProt:P11229
- Sequence (P11229 whole entry): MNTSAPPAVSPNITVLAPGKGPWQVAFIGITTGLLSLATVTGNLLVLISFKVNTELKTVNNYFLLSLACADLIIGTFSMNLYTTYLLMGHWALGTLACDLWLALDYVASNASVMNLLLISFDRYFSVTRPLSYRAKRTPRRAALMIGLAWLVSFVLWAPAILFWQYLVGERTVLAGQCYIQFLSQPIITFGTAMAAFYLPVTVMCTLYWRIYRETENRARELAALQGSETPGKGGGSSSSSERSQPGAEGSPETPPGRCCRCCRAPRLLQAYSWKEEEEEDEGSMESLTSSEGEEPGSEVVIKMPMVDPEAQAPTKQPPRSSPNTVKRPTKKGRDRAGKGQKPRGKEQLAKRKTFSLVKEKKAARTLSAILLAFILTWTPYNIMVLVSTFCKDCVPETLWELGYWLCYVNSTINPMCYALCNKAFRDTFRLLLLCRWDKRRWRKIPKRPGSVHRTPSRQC
- METHOD: Binding affinity to human recombinant muscarinic M1 receptor expressed in CHO cells after 90 mins by radioligand displacement assay
MEASUREMENT KIND: Ki

Ask | What value of measured Ki is listed for `Cl.NC1=Nc2ccc(Cl)cc2CN1` ?
Reply | > 10 µM

====

- ASSAY SYSTEM: Alpha-2B adrenergic receptor (Homo sapiens, UniProt P18089)
- Sequence (P18089 whole entry): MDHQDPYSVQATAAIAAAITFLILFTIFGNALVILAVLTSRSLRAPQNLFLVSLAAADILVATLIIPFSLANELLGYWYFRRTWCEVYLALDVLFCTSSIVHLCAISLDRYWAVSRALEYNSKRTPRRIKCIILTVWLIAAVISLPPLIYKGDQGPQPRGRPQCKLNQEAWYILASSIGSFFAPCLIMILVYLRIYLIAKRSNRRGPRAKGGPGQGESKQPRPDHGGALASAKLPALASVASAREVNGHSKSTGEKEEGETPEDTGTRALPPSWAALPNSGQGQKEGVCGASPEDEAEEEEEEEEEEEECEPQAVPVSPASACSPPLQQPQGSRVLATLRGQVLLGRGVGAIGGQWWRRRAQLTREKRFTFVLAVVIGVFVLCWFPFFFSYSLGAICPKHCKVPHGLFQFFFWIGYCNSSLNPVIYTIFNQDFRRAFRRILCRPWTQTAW
- METHOD: Displacement of [3H]Rauwolscine from human recombinant alpha2B-adrenoceptor expressed in HEK cells after 90 mins by scintillation counting analysis
MEASUREMENT KIND: Ki (nM)
Your answer should be a plain number; it is taken to be in nM.

Ask | What value of measured Ki is listed for `Cl.NC1=Nc2ccc(Cl)cc2CN1` ?
Reply | 243

====

- ASSAY SYSTEM: Sodium-dependent serotonin transporter (Homo sapiens, UniProt P31645)
- Sequence (P31645 whole entry): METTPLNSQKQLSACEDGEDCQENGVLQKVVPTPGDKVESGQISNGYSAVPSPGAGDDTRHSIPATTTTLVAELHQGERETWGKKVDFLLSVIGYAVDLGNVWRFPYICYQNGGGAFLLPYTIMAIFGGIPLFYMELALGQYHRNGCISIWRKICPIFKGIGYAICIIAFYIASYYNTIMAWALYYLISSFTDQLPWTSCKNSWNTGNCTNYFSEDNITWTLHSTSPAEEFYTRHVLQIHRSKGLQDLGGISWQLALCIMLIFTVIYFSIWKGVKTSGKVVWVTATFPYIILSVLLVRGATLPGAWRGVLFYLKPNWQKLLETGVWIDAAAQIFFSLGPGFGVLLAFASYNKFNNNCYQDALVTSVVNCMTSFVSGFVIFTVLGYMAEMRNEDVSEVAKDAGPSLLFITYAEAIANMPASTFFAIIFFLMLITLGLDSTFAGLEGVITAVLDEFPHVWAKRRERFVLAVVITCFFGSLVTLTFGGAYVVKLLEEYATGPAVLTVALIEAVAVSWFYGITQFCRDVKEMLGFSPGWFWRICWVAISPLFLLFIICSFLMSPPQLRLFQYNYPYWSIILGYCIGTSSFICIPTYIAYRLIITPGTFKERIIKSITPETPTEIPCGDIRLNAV
- METHOD: Displacement of [3H]cfitalopramfrom human recombinant serotonin transporter expressed in HEK cells after 90 mins by scintillation counting analysis
MEASUREMENT KIND: Ki

Ask | What value of measured Ki is listed for `Cl.NC1=Nc2ccc(Cl)cc2CN1` ?
Reply | > 10 µM

====

- ASSAY SYSTEM: Alpha-2A adrenergic receptor (Homo sapiens)
- Sequence (P08913 whole entry): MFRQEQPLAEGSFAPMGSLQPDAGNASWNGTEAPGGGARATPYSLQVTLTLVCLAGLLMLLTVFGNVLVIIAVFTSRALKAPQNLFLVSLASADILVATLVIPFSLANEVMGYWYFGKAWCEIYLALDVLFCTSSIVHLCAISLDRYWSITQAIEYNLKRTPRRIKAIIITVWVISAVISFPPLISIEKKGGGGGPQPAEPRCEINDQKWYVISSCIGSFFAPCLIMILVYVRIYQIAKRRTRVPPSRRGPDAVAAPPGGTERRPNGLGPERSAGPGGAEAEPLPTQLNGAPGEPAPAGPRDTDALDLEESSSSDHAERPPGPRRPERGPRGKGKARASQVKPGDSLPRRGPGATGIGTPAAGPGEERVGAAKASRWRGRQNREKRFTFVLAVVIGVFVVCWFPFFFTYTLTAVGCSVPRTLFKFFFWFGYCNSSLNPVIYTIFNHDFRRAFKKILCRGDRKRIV
- METHOD: Displacement of [3H]Rauwolscine from human recombinant alpha2A-adrenoceptor expressed in MDCK cells after 90 mins by scintillation counting analysis
MEASUREMENT KIND: Ki (µM)
Your answer should be a plain number; it is taken to be in µM.

Ask | What value of measured Ki is listed for `Cl.NC1=Nc2ccc(Cl)cc2CN1` ?
Reply | 0.283

====

- ASSAY SYSTEM: UniProt:P35372
- Sequence (P35372 whole entry): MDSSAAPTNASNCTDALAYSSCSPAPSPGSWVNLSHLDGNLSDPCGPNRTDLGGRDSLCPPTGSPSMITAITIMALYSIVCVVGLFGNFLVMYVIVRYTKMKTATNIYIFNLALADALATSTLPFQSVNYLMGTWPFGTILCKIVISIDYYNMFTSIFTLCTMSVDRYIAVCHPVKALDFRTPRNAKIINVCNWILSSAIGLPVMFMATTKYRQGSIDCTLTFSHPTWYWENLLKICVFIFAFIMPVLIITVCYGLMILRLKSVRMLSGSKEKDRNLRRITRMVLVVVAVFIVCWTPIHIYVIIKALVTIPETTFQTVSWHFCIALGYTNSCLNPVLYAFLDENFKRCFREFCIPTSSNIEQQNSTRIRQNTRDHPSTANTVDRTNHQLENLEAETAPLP
- METHOD: Displacement of [3H]DAMGO from human recombinant mu opioid receptor expressed in HEK cells after 90 mins by scintillation counting analysis
MEASUREMENT KIND: Ki

Ask | What value of measured Ki is listed for `Cl.NC1=Nc2ccc(Cl)cc2CN1` ?
Reply | > 10 µM

====

- ASSAY SYSTEM: Nicotinic acetylcholine receptor alpha2/beta4 (Homo sapiens, UniProt P02708+P30926)
- Sequence (P02708 whole entry): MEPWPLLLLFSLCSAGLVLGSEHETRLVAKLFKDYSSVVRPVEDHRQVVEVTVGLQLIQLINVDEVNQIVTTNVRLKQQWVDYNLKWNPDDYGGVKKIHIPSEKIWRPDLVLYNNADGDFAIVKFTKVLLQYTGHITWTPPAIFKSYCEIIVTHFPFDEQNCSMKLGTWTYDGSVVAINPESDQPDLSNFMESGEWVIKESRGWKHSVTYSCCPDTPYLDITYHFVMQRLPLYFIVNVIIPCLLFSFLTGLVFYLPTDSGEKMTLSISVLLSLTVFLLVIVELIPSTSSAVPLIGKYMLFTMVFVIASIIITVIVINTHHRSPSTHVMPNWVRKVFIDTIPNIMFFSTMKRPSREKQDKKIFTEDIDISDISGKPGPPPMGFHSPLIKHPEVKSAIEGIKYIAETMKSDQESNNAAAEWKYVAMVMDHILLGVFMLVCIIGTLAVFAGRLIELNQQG
- Sequence (P30926 whole entry): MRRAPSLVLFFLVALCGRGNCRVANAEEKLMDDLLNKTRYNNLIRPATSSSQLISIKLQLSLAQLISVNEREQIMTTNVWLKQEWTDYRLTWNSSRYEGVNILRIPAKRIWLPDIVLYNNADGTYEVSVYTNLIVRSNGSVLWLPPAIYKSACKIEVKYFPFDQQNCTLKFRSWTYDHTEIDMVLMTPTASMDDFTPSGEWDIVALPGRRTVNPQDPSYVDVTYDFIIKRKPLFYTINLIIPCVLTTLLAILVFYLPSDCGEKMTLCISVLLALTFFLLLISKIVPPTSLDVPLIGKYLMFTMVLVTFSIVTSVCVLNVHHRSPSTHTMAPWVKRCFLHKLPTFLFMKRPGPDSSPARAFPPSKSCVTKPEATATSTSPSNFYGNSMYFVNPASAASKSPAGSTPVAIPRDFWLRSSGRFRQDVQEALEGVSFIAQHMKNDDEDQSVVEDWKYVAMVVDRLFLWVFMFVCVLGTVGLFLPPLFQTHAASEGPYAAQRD
- METHOD: Displacement of [3H]-epibatidine from human alpha2beta4 nAChR transfected in HEK293 cells by scintillation counting analysis
pKi: −log10 of the molar value.
MEASUREMENT KIND: pKi

Ask | What value of measured pKi is listed for `Cl.NC1=Nc2ccc(Cl)cc2CN1` ?
Reply | < 5.00

====

- METHOD: Displacement of [3H]Muscimol from GABAA in rat brain after 90 mins by scintillation counting analysis
- Format: tissue-based
MEASUREMENT KIND: Ki

Ask | What value of measured Ki is listed for `Cl.NC1=Nc2ccc(Cl)cc2CN1` ?
Reply | > 10 µM

====

- ASSAY SYSTEM: Alpha-1A adrenergic receptor (Homo sapiens, UniProt P35348)
- Sequence (P35348 whole entry): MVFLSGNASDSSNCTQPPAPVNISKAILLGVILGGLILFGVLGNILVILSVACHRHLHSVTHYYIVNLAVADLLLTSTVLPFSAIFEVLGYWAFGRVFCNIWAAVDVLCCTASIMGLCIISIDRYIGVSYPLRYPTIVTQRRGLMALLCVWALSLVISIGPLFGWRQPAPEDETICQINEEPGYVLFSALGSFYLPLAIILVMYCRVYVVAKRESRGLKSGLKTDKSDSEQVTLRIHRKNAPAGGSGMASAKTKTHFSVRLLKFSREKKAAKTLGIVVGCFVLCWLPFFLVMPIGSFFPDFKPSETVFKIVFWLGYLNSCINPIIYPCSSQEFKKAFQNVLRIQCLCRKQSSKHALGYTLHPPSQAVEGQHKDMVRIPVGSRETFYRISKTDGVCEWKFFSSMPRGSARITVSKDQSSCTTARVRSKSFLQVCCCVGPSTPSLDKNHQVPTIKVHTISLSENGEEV
- METHOD: Displacement of [3H]Prazosin from human recombinant alpha1A-adrenoceptor after 90 mins by scintillation counting analysis
MEASUREMENT KIND: Ki

Ask | What value of measured Ki is listed for `Cl.NC1=Nc2ccc(Cl)cc2CN1` ?
Reply | > 10 µM

====

- ASSAY SYSTEM: UniProt Q01959
- Sequence (Q01959 whole entry): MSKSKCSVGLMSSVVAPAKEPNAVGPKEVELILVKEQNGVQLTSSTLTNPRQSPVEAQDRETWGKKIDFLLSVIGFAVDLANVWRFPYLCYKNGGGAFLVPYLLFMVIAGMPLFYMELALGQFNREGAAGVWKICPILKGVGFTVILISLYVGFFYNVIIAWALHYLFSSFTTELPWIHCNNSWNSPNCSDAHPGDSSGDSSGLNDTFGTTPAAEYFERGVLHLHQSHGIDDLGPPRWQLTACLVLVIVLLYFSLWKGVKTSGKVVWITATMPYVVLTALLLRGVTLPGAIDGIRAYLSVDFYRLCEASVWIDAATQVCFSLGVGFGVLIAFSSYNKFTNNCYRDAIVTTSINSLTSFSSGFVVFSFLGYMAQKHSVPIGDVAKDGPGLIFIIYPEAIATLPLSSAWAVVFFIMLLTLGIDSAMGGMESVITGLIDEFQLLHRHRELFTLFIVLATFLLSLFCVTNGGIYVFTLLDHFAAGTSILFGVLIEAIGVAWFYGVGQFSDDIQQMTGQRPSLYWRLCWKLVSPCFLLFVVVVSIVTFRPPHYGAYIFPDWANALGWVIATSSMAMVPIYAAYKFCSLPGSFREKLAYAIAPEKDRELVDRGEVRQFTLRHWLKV
- METHOD: Displacement of [3H]WIN35428 from human recombinant sodium-dependent dopamine transporter expressed in HEK cells after 90 mins by scintillation counting analysis
- Assay type: cell-based, HEK293
MEASUREMENT KIND: Ki

Ask | What value of measured Ki is listed for `Cl.NC1=Nc2ccc(Cl)cc2CN1` ?
Reply | > 10 µM

====

- ASSAY SYSTEM: 5-hydroxytryptamine receptor 6 (Homo sapiens, UniProt P50406)
- Sequence (P50406 whole entry): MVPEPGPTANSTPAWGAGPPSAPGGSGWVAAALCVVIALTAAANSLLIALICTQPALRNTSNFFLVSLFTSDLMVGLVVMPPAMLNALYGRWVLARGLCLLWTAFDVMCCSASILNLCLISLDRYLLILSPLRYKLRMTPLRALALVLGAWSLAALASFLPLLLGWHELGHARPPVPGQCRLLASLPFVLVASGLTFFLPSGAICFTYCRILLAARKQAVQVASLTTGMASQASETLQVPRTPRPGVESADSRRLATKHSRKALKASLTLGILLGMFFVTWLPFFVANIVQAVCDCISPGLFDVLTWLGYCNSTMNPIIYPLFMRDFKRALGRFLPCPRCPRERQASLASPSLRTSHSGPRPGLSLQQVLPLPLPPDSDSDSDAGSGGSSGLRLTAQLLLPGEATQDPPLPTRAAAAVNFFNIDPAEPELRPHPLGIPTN
- METHOD: Displacement of [3H]LSD from human recombinant 5-HT6 receptor expressed in HEK cells after 90 mins by scintillation counting analysis
MEASUREMENT KIND: Ki

Ask | What value of measured Ki is listed for `Cl.NC1=Nc2ccc(Cl)cc2CN1` ?
Reply | > 10 µM
